target.of.assay: Bromodomain-containing protein 4 (Homo sapiens)
measurement.description: Inhibition of BRD4 BD1 (unknown origin) using FAM-labeled JQ-1 as fluorescent substrate assessed as inhibition constant incubated for 30 mins by competitive fluorescence polarization method
Decision: Ki beneath 5 µM gives TRUE; Ki meeting or exceeding 5 µM gives FALSE.

query.smiles	label
COc1cc(-c2nc(SCc3ccccc3Cl)[nH]c(=O)c2C#N)cc(OC)c1OC	TRUE
COc1ccc(-c2nc(SCCc3ccccc3Cl)[nH]c(=O)c2C#N)cc1OC	FALSE
COc1cc(-c2nc(SCc3ccccc3C(F)(F)F)[nH]c(=O)c2C#N)cc(OC)c1OC	TRUE
N#Cc1c(O)nc(SCc2ccccc2Cl)nc1-c1ccccc1	FALSE

Please find the next molecule below.
Item COc1cc(-c2nc(SCc3ccccc3F)[nH]c(=O)c2C#N)cc(OC)c1OC : Ki beneath 5 µM, strictly?
TRUE

----------
target.of.assay: Bromodomain-containing protein 4 (Homo sapiens)
measurement.description: Inhibition of BRD4 BD1 (57 to 168 residues) (unknown origin) transfected in Escherichia coli (DE3) using FAM-labeled JQ-1 as fluorescent substrate at 5 uM incubated for 30 mins by competitive fluorescence polarization method relative to control
measured.attribute: inhibition (%)
Give just the number in %; leave the unit off.

compound	measured.attribute	reading.unit	observed.result
N#Cc1c(O)nc(SCc2ccccc2Cl)nc1-c1ccccc1	inhibition	%	7.01
COc1cccc(-c2cc(=O)[nH]c(N3CCN(c4ccccc4)CC3)n2)c1	inhibition	%	1.56
COc1ccc(CNC(=O)C2CCCN(c3nc4c(-c5ccc(C)cc5)csc4c(=O)[nH]3)C2)cc1 (stereo unspecified)	inhibition	%	2.1
Cc1cccc(OCc2occc2C(=O)N(C)Cc2cc(O)nc3ccccc23)c1	inhibition	%	3.59
Cc1cc2nc(SCC(=O)N(C)c3cccc(Cl)c3)[nH]c(=O)c2[nH]1	inhibition	%	4.63

Just so you know, measured inhibition for Oc1ccc(-c2[nH]c(-c3ccccc3O)nc2-c2ccccc2)cc1 came out at 11.8
